Biological target: T1, Bzz1-1, P38822
T1 sequence (P38822 478-572, looked up): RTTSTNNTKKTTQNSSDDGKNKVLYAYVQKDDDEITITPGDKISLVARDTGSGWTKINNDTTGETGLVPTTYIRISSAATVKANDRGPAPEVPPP
Experiment: SPOT array
Conditions: median of control spots 4446
parameter.measured: SPOT intensity
# print the numeric value only

Q: Using known records, supply SPOT intensity for SHRLWLYAAPKRPKT
Result: 2

Q: Using known records, supply SPOT intensity for DDEDVPPQLPTRTKS
Result: 0

Q: Using known records, supply SPOT intensity for RRGPAPPPPPRASRP
Result: 45

Q: Using known records, supply SPOT intensity for TTAPALPSLPPPPLL
Result: 0

Q: Using known records, supply SPOT intensity for NILKRRPLKLEAPSK
Result: 2

Q: Using known records, supply SPOT intensity for TKIRRRPQQPLTDFT
Result: 0

Q: Using known records, supply SPOT intensity for SRYRRPLTLLLLKPF
Result: 0

Q: Using known records, supply SPOT intensity for ALRRRLPVTRSKINW
Result: 0

Q: Using known records, supply SPOT intensity for APPLPPTAPPPPSLP
Result: 0

Q: Using known records, supply SPOT intensity for NSVPIMPTLPPRPYI
Result: 0

Q: Using known records, supply SPOT intensity for VTHRLRISIPGITGR
Result: 0

Q: Using known records, supply SPOT intensity for YVRRRPRVRLEPLLS
Result: 0

Q: Using known records, supply SPOT intensity for IRMPSNPALPKKLLN
Result: 0

Q: Using known records, supply SPOT intensity for NQARKPFLLPATELS
Result: 0

Q: Using known records, supply SPOT intensity for GAGERPRLVPRPINV
Result: 1
